Target: native human ESRRG protein (Homo sapiens)
Sequence (P62508 1-458): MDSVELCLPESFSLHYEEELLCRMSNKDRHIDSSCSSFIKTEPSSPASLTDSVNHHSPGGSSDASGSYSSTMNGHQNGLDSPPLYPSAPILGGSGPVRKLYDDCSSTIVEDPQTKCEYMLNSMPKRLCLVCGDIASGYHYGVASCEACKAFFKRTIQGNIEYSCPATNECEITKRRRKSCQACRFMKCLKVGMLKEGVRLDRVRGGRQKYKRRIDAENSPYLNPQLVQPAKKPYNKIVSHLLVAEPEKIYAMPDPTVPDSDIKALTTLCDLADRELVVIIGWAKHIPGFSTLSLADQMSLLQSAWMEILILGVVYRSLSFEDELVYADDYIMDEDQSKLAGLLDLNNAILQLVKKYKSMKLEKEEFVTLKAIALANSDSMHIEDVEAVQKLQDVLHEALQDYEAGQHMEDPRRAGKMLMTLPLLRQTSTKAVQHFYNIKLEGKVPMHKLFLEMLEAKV
Assay: peptide microarray screening for ESRRG binding (Iteration 1 and 2)
Conditions: Iteration 2 iterative screen; fluorescence intensity units
Each item that follows carries a reported Sample A (Bkgd) Signal.

[
  {
    "input.sequence": "HNSYPRNE",
    "Sample A (Bkgd) Signal": 143.58
  },
  {
    "input.sequence": "FYNMYLLN",
    "Sample A (Bkgd) Signal": 251.75
  },
  {
    "input.sequence": "GKSYPRHR",
    "Sample A (Bkgd) Signal": 553.79
  },
  {
    "input.sequence": "HYKLKQHE",
    "Sample A (Bkgd) Signal": 165.10
  },
  {
    "input.sequence": "HRSYPRRG",
    "Sample A (Bkgd) Signal": 805.42
  },
  {
    "input.sequence": "YFLLQQGP",
    "Sample A (Bkgd) Signal": 202.29
  },
  {
    "input.sequence": "LFKLKQND",
    "Sample A (Bkgd) Signal": 366.58
  },
  {
    "input.sequence": "WANYLLPP",
    "Sample A (Bkgd) Signal": 182.90
  },
  {
    "input.sequence": "DRSYPRHT",
    "Sample A (Bkgd) Signal": 68.94
  },
  {
    "input.sequence": "YHNYLLHP",
    "Sample A (Bkgd) Signal": 240.19
  },
  {
    "input.sequence": "EESYPRDK",
    "Sample A (Bkgd) Signal": 121.27
  }
]

###

Target: native human ESRRG protein (Homo sapiens, UniProt P62508)
Sequence (P62508 1-458): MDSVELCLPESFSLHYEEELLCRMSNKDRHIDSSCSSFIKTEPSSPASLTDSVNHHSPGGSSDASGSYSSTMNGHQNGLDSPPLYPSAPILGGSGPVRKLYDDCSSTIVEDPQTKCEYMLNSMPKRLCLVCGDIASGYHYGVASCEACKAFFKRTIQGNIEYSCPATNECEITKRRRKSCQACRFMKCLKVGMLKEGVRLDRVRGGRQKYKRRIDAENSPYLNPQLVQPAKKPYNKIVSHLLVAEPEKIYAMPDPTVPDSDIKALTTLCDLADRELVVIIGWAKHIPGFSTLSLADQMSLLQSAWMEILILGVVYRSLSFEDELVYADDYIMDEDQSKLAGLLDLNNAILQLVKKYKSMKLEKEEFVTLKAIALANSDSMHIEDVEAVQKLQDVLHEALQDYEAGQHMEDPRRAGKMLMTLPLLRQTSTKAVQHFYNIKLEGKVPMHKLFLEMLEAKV
Experiment: peptide microarray screening for ESRRG binding (Iteration 1 and 2)
Settings: Iteration 2 iterative screen; fluorescence intensity units
Would you mind labelling by Sample A (Bkgd) Signal? At or over 200 is T, under is F.

[
  {
    "input.sequence": "IFLLQQDN",
    "test.target": "native human ESRRG protein (Homo sapiens, UniProt P62508)",
    "class.name": "T"
  },
  {
    "input.sequence": "WIKLKQND",
    "test.target": "native human ESRRG protein (Homo sapiens, UniProt P62508)",
    "class.name": "F"
  },
  {
    "input.sequence": "VLLHYGLY",
    "test.target": "native human ESRRG protein (Homo sapiens, UniProt P62508)",
    "class.name": "T"
  },
  {
    "input.sequence": "WNSYPRND",
    "test.target": "native human ESRRG protein (Homo sapiens, UniProt P62508)",
    "class.name": "T"
  },
  {
    "input.sequence": "EDSYPRDG",
    "test.target": "native human ESRRG protein (Homo sapiens, UniProt P62508)",
    "class.name": "T"
  },
  {
    "input.sequence": "DNNYLLLL",
    "test.target": "native human ESRRG protein (Homo sapiens, UniProt P62508)",
    "class.name": "F"
  },
  {
    "input.sequence": "FFNFSLPA",
    "test.target": "native human ESRRG protein (Homo sapiens, UniProt P62508)",
    "class.name": "F"
  },
  {
    "input.sequence": "NNSYPRHR",
    "test.target": "native human ESRRG protein (Homo sapiens, UniProt P62508)",
    "class.name": "T"
  }
]
